B1: CPEB3 Ribozyme (parent)
chain: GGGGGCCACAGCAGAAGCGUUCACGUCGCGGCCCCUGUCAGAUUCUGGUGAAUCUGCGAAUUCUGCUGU

# Variants of: B1
# TEST_NAME: self-cleavage, relative activity (ratio to wild type); higher = more cleavage; co-transcriptional
self-cleavage class ranges: low = under 0.2, intermediate = from 0.2 up to 0.7, high = 0.7 and over

Prompt line: Record C7U U62A — which class?
Response line: intermediate

Prompt line: Record C18G U64G — which class?
Response line: low

Prompt line: Record A52U C57A — which class?
Response line: intermediate

Prompt line: Record G4A U44G — which class?
Response line: intermediate

Prompt line: Record C22G G47U — which class?
Response line: low

Prompt line: Record G14A C34G — which class?
Response line: intermediate

Prompt line: Record U67A U69G — which class?
Response line: high

Prompt line: Record C63G C66U — which class?
Response line: intermediate

Prompt line: Record G25U C33A — which class?
Response line: low

Prompt line: Record G14C A59U — which class?
Response line: intermediate

Prompt line: Record U20G U55C — which class?
Response line: low

Prompt line: Record U55G U69G — which class?
Response line: high

Prompt line: Record A23C C45A — which class?
Response line: high

Prompt line: Record A13G U62C — which class?
Response line: intermediate

Prompt line: Record U43G A60G — which class?
Response line: intermediate

Prompt line: Record G1C G11C — which class?
Response line: low

Prompt line: Record G48C U67A — which class?
Response line: high

Prompt line: Record G5C U26A — which class?
Response line: low

Prompt line: Record C7G A13G — which class?
Response line: intermediate

Prompt line: Record A16G A23U — which class?
Response line: high

Prompt line: Record G48C C63U — which class?
Response line: high

Prompt line: Record U62G U67A — which class?
Response line: high

Prompt line: Record A16U C29G — which class?
Response line: intermediate

Prompt line: Record G3U G58C — which class?
Response line: low

Prompt line: Record G48U A59U — which class?
Response line: high

Prompt line: Record G17C A23C — which class?
Response line: low

Prompt line: Record C6A U61G — which class?
Response line: intermediate

Prompt line: Record C32G G41A — which class?
Response line: intermediate

Prompt line: Record U49C A52G — which class?
Response line: high

Prompt line: Record C57A A59G — which class?
Response line: intermediate

Prompt line: Record G19C C27U — which class?
Response line: low

Prompt line: Record U44G — which class?
Response line: high

Prompt line: Record C24U G50C — which class?
Response line: high

Prompt line: Record A42G C63A — which class?
Response line: intermediate

Prompt line: Record U21G G25U — which class?
Response line: low

Prompt line: Record U38A U55G — which class?
Response line: high

Prompt line: Record U20G U64C — which class?
Response line: low

Prompt line: Record A13U A15G — which class?
Response line: high
